Provenance of the data: paper PMC9090415

molecular target: bacteriophage T4 DNA polymerase (Enterobacteria phage T4, UniProt P04415); construct: made in house; assay: Counter-screen against bacteriophage T4 DNA polymerase; type: biochemical; settings: DRC-2; read at 90'; concentration 10
Sequence (P04415 whole entry): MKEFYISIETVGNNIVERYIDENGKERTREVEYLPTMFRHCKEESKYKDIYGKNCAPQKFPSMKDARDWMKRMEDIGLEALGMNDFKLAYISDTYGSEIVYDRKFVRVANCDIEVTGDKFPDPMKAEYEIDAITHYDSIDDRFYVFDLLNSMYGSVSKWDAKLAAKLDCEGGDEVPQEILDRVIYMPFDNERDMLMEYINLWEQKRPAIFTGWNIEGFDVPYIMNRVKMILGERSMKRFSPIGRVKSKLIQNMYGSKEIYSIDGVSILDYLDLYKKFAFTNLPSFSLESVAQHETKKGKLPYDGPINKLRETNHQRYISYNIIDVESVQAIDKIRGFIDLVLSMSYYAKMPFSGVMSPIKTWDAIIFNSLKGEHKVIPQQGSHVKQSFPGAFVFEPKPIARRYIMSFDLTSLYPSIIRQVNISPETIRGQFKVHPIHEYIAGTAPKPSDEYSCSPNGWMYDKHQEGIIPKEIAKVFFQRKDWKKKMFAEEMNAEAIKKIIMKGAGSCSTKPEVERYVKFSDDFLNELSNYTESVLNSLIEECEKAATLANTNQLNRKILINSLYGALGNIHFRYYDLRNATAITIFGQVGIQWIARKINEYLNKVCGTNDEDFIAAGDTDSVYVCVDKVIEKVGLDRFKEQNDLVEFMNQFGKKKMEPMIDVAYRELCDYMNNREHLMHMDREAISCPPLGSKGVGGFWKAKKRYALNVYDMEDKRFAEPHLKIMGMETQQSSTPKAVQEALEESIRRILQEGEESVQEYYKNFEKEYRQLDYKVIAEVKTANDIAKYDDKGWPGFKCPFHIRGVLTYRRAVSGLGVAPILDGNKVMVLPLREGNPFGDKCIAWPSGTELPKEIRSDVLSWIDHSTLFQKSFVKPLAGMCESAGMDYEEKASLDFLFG
quantity-kind: % inhibition T4 90' 10 (%)
Your answer should be a plain number; it is taken to be in %.

compound | % inhibition T4 90' 10, %
CC(=O)Nc1cc(C(=O)c2cccs2)nn(-c2ccc(Cl)cc2)c1=O | 4
Cc1ccsc1Cn1c(C)ccc1C | 8
Cc1cccc(-c2noc(C(=O)NNC(=O)C(Cl)(Cl)Cl)n2)c1 | -5
Cc1nc(C)c2c(n1)N(CC1CCCCC1)C(=O)CC2 | 7
Cc1ccc(N2CCC(NC(=O)Cc3cccs3)C2=O)cc1C (centres unmarked) | 20

So what % inhibition T4 90' 10 did COc1ccccc1CC(=O)N1CCc2c(nc3cc(-c4ccccc4Cl)[nH]n3c2=O)C1 get with bacteriophage T4 DNA polymerase (Enterobacteria phage T4, UniProt P04415)?
-31

So what % inhibition T4 90' 10 did Cn1nc(-c2nc(-c3ccccc3)no2)c2c1CCN(C(=O)Cc1cccs1)C2 get with bacteriophage T4 DNA polymerase (Enterobacteria phage T4, UniProt P04415)?
17

So what % inhibition T4 90' 10 did CC(C)CC(C(=O)O)N1C(=O)C2C3C=CC(C2C1=O)C1C(=O)N(C(CC(C)C)C(=O)O)C(=O)C31 (centres unmarked) get with bacteriophage T4 DNA polymerase (Enterobacteria phage T4, UniProt P04415)?
7

So what % inhibition T4 90' 10 did N#Cc1c(O)nc(N2CCCCC2)nc1-c1ccc2c(c1)OCO2 get with bacteriophage T4 DNA polymerase (Enterobacteria phage T4, UniProt P04415)?
2.84

So what % inhibition T4 90' 10 did Nc1cc(Oc2ccc(O)c(N)c2)ccc1O get with bacteriophage T4 DNA polymerase (Enterobacteria phage T4, UniProt P04415)?
-3.47

So what % inhibition T4 90' 10 did Cn1nc(-c2nnc(-c3ccccc3F)o2)c2c1CCN(C(=O)c1ccccc1Cl)C2 get with bacteriophage T4 DNA polymerase (Enterobacteria phage T4, UniProt P04415)?
-2.12

So what % inhibition T4 90' 10 did COc1ccc(C2CC(c3ccc(Cl)cc3Cl)Nc3nc(N)nn32)cc1OC (centres unmarked) get with bacteriophage T4 DNA polymerase (Enterobacteria phage T4, UniProt P04415)?
-0.792

So what % inhibition T4 90' 10 did C#CC(C=CC)OC(=O)c1ccccc1C(=O)O (centres unmarked) get with bacteriophage T4 DNA polymerase (Enterobacteria phage T4, UniProt P04415)?
0.277

So what % inhibition T4 90' 10 did CCCc1ccc(Oc2coc3cc(OC)ccc3c2=O)cc1 get with bacteriophage T4 DNA polymerase (Enterobacteria phage T4, UniProt P04415)?
-0.214

So what % inhibition T4 90' 10 did COc1ccc(/C=C/c2cc(C(=O)O)c3ccccc3n2)cc1 get with bacteriophage T4 DNA polymerase (Enterobacteria phage T4, UniProt P04415)?
16

So what % inhibition T4 90' 10 did CC(=O)OCC1=C(C(=O)[O-])N2C(=O)[C@@H](NC(=O)Cc3cccs3)[C@H]2SC1.[Na+] get with bacteriophage T4 DNA polymerase (Enterobacteria phage T4, UniProt P04415)?
10

So what % inhibition T4 90' 10 did O=C(c1ccccc1)N1CCc2c(nc3cc(-c4ccccc4)[nH]n3c2=O)C1 get with bacteriophage T4 DNA polymerase (Enterobacteria phage T4, UniProt P04415)?
-10
